# system under test: Arginase-2, mitochondrial (Homo sapiens) (UniProt P78540)
# Sequence (P78540 whole entry): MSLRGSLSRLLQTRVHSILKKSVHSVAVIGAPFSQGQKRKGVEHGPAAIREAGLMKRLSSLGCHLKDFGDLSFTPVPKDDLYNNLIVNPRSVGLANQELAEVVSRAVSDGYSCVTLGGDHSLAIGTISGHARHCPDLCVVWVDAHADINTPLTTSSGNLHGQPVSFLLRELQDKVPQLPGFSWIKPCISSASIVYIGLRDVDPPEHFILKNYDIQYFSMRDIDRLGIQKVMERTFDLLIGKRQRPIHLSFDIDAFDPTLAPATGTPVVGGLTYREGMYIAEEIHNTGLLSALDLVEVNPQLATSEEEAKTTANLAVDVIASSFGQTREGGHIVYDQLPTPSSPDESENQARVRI
# method description: in vitro enzyme assay to detect the production of urea directly proportional to the activity of Arginase II
# Type: functional
# Design: scale not given: in the data most compounds retested in dose-response had high values
# condition: 33.3 µM
measurement type: Percent Effect (%)
Numbers only, in %.

Take each entry in turn and give its Percent Effect.
1. Cc1c[nH]nc1C1CCN(S(=O)(=O)N(C)C)CC1
2. COC(=O)CCN1CCCC1c1ccccc1Cl (stereo not given)
3. CC(O)CN1CCC(CNCc2cccc(Br)c2)CC1 (stereo not given)

Solution:
1: -1.16; 2: -1.56; 3: -5.61

Take each entry in turn and give its Percent Effect.
1. COc1c(CNC2CCCc3ccccc32)c(C)nn1C (stereo not given)
2. Cc1oncc1C(=O)N1CCC2(C1)CN(c1cccnc1)C(=O)CN2C (stereo not given)

Solution:
1. 2.23
2. -53.6
